Each record here notes measured pEC50.
System: Plasmodium falciparum
Experimental details: In vitro antimalarial activity against chloroquine-sensitive Plasmodium falciparum FCR3
Assay type: functional, organism-based
# pEC50 is unitless: minus log10 of the molar concentration; print number only

Worked cases, answers included:
Compound | Reported value
O=C(C[C@@H]1NCCC[C@H]1O)Cn1cnc2ccccc2c1=O (single isomer, unassigned) | 9.15
O=c1c2ccccc2ncn1CC1(O)C[C@@H]2NCCC[C@@H]2O1 (stereo not given in full) | 8.47
CC1(C)[C@@H](n2cnc3ccccc3c2=O)C(=O)C[C@@H]2[C@@H](O)CCCN21 | 8.80

Output pEC50 of `CC1(C)[C@H](n2cnc3ccccc3c2=O)C(=O)C[C@H]2[C@@H](O)CCCN21`
8.55

Let me know recorded pEC50 for CCN(CC)CCCC(C)Nc1ccnc2cc(Cl)ccc12 (stereo not given) , thanks.
7.74

====

Test system: Mus musculus
Experimental details: Compound was tested for antimalarial activity against mice (Mus musculus) malaria parasite Plasmodium berghei in vivo and the samples were administarted intraperitoneally.
Type: functional
Experimental context: ip
Each entry below carries its reported ED50.

Some solved cases for reference:
Compound | Reported value
CC1(C)[C@@H](n2cnc3ccccc3c2=O)C(=O)C[C@@H]2[C@@H](O)CCCN21 | 7.3 µmol/kg
O=C(C[C@@H]1NCCC[C@H]1O)Cn1cnc2ccccc2c1=O (single isomer, unassigned) | 1 µmol/kg

Provide the reported ED50 (system: Mus musculus) for CCN(CC)CCCC(C)Nc1ccnc2cc(Cl)ccc12 (centres undefined)
4.7 µmol/kg

Under Mus musculus: report ED50 of `CC1(C)[C@H](n2cnc3ccccc3c2=O)C(=O)C[C@H]2[C@@H](O)CCCN21` .
76 µmol/kg

Reference source for all entries: ChEMBL document CHEMBL1132346
